test: NCI Yeast Anticancer Drug Screen. Data for the CLN2oe strain (AID 163);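 also: 0% = growth of vehicle-only control cultures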; details: S. cerevisiae CLN2oe strain, at 33.0 µM, stronger effect = higher value
The panel holds about 79,000 compounds, 15% with a hit somewhere; the sample as a whole holds those more often.
Note to self: values exactly at 30% are true (1). So growth inhibition at or above 30% is true (1), below is false (0).

INSERT INTO results (compound, label) VALUES
  ('CC[C@@]1(O)C(=O)OCc2c1cc1n(c2=O)Cc2cc3c(N)cccc3nc2-1', 'false (0)'),
  ('COc1ccc(/C=C2\SC(=S)N(/C=C/c3nc4ccccc4[nH]c3=O)C2=O)cc1OC', 'true (1)'),
  ('Cn1c(=O)c2ccccc2c2ccccc21', 'false (0)'),
  ('O=Nc1cccnc1N=O', 'true (1)'),
  ('CC(C)c1cc(C(C)C)c(O)c(C([O-])[O-])c1.CC(C)c1cc(C(C)C)c(O)c(C([O-])[O-])c1.CC(C)c1cc(C(C)C)c(O)c(C([OH2+])[OH2+])c1.CC(C)c1cc(C(C)C)c(O)c(C([OH2+])[OH2+])c1.[Cu+2].[Cu+2].[OH3+].[OH3+]', 'true (1)'),
  ('O=C(/C=C/c1cccc(Br)c1)c1cccs1', 'true (1)'),
  ('O=[N+]([O-])c1ccc2c(c1)C(N1CCN(CCO)CC1)Cc1ccc(F)cc1S2 (stereo not drawn)', 'false (0)'),
  ('Oc1ccc2ccccc2c1C(c1ccc(Cl)cc1)c1c(O)ccc2ccccc12', 'true (1)'),
  ('CC[C@@]1(O)C(=O)OCc2c1cc1n(c2=O)Cc2cc3c(CN(C)C)c(O)ccc3nc2-1', 'false (0)'),
  ('COC1=CC(=O)C(C2(OC(C)C)OC(=O)C(Cl)=C2Cl)=CC1=O (stereo not drawn)', 'true (1)'),
  ('Cc1cc(CO)c(O)c(CNCc2cc(C)cc(CO)c2O)c1', 'false (0)'),
  ('COc1ccc(/C=C/C(=O)C(C)(C)Br)cc1', 'true (1)'),
  ('O=C(COC(=O)c1cc(O)c(O)c(O)c1)c1ccc(-c2ccccc2)cc1', 'false (0)'),
  ('S=C(Nc1ccc(Cl)cc1)SC1CCCCC1', 'true (1)'),
  ('CC1=C(SCCO)C(=O)c2ccccc2C1=O', 'false (0)'),
  ('[O-][n+]1c2ccc(O)cc2nc2ccc(Cl)cc21', 'true (1)'),
  ('CCN(CC)CCC(=O)c1ccc(Oc2ccc(F)cc2)cc1', 'true (1)'),
  ('CCOC(=O)C1=C(C(=O)c2ccccc2)C(c2ccccc2[N+](=O)[O-])C(C(=O)c2ccccc2)=C(C(=O)OCC)N1', 'false (0)'),
  ('COC(=O)c1ccc(NCC2=CC(=O)C=CC2=O)cc1O', 'true (1)'),
  ('Cc1nc(-c2ccccc2)c(-c2ccccc2)s1', 'true (1)'),
  ('CCCCCCCCCC/C=C\C(=O)O', 'false (0)');
